# Tested Target: T1, recombinant human SOD1 (biomol, Hamburg) (human, UniProt P00441 2-154, limits assumed)
# T1 construct: Bought protein; also called recombinant human superoxide dismutase 1; Recombinant SOD1
# T1 sequence (P00441 2-154 limits assumed): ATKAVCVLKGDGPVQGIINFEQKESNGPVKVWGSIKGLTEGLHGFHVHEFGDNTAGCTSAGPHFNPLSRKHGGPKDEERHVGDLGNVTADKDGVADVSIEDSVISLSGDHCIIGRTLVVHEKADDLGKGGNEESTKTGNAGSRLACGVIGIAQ
# Measurement Protocol: direct ELISA, recombinant SOD1 coated at 20 µg/ml
Measured Property: EC50 (nM)
Expressed in nM, but write only the number.

I have this binder here, NI-204.11F11 (antibody, human IgG1, V domains shown) VH: EVQLVESGGGLVKPGGSLRLSCAASGLPFSKAWMSWVRQAPGKGLEWVGRIKSQADGGAIDYATSVNGRFTITRDDSKNTLYLQMTSLKTEDTAVYYCTPGIILRFLEGTLRGMDVWGQGTTVTVSS VL: EIVLTQSPPTLSLSPGERATLSCRASQTVSKYLAWYQQKPGQAPRLLVYDTSNRAIGIPPRFSGSGSGTDFTLTISTLEPEDFALYYCQQRSNWPPTFGQGTRLEIK , and I need its recorded EC50.
0.5
